Experiment: Solubility of polymorphic forms in physiologically relevant media and final pH
Type: physicochemical
Details: FaSSIF
From the text: Solubility data of the several polymorphic forms of Compound 1 in physiologically relevant media and the final pH of these solutions are summarized in the following tables.
reported.property: Solubility (µg/mL)

| compound | reported.property | val |
| --- | --- | --- |
| N#Cc1ccc(N2CCN(Cc3ccc(COc4cccc5c4CN([C@H]4CCC(=O)NC4=O)C5=O)cc3)CC2)c(F)c1 [Form C of a free base of Compound 1] | Solubility | 1 |
| Cl.N#Cc1ccc(N2CCN(Cc3ccc(COc4cccc5c4CN([C@H]4CCC(=O)NC4=O)C5=O)cc3)CC2)c(F)c1 [HC1 Salt] | Solubility | 1 |
| N#Cc1ccc(N2CCN(Cc3ccc(COc4cccc5c4CN([C@H]4CCC(=O)NC4=O)C5=O)cc3)CC2)c(F)c1.O [Form K of a free base of Compound 1] | Solubility | 1 |
